System: Macrophage cell line
Measurement Protocol: Antiinflammatory activity in human PBMC-differentiated macrophages assessed as lowest concentration required to show at least 25% inhibition of LPS-induced TNFalpha production measured after 24 hrs by ELISA
Assay type: functional
Please provide measured Activity for the entries that follow.
Numbers only, in µM.

# input Item "O=C(O)c1cc(-c2ccc(F)cc2F)ncc1O" has what recorded Activity?
# output 1

# input Look at this compound and give its reported Activity. "O=C(O)c1cc(O)cnc1-c1ccccc1"
# output 10

# input Endpoint output: Activity of "O=C(O)c1ccnc(-c2ccccc2)c1O" . Value?
# output 10

# input Given "O=C(O)c1cc(-c2ccccc2)nc(-c2ccccc2)c1O" , state its recorded Activity.
# output 10

# input compound: "O=C(O)c1cc(O)c(-c2ccccc2)nc1-c1ccccc1" ; wanted: its Activity
# output 10

# input Which Activity reading was recorded for the compound "Cc1nc(-c2ccccc2)c(O)cc1C(=O)O" ?
# output 10

Here's the next entry for you.
# input compound: "O=C(O)c1cnc2c(F)cc(F)cc2c1O" ; wanted: its Activity
# output 1

Data provenance is ChEMBL document CHEMBL4257522.
